The measurements presented in this section are drawn from paper PMC11264232.

Experiment: pKa by pH-potentiometric titration
Assay type: physicochemical
Details: 30% (v/v) DMSO/H2O, 25.0 °C, I = 0.1 M (KCl), anoxic, read-out: pKa (NmorphH^+)
Experimental: Therefore, the proton dissociation constants (pKa) of the proligands HL^1–HL^3 were determined under anoxic conditions by pH-potentiometric titrations (Fig. S14 in the ESI ^†). As this method requires relatively high compound concentrations (>1 mM), the measurements were performed in 30% (v/v) DMSO to achieve the required solubility. Three pKa values were determined for the proligands HL^1 and HL^2, whereas only two constants, as expected, were obtained for phenyl derivative HL^3 (Table 3). […]
recorded.endpoint: pKa

> print(dat)
                                 smiles.str  recorded.endpoint  experimental.result
1  C/C(=N\NC(=S)Nc1cc(C)c(O)c(C)c1)c1cccc(CN2CCOCC2)n1                pKa                 5.85
2  Cc1cc(NC(=S)N/N=C/c2cccc(CN3CCOCC3)n2)cc(C)c1O                pKa                 5.54
3   S=C(N/N=C/c1cccc(CN2CCOCC2)n1)Nc1ccccc1                pKa                 5.55
